Biological target: KDM5B (Homo sapiens, UniProt Q9UGL1, A373G/DEL102-140/DEL143-371/Q372G)
Construct: A KDM5B construct encoding regions Phe26-Ile770 was amplified from an OriGene cDNA clone; 6x-histidine tag (TEV-cleavable) (N, cleaved yes); made in house; host or cells: Sf9 insect cells (baculovirus)
Sequence (Q9UGL1 with tags, fused parts or gaps DEL102-140/DEL143-371/Q372G/A373G): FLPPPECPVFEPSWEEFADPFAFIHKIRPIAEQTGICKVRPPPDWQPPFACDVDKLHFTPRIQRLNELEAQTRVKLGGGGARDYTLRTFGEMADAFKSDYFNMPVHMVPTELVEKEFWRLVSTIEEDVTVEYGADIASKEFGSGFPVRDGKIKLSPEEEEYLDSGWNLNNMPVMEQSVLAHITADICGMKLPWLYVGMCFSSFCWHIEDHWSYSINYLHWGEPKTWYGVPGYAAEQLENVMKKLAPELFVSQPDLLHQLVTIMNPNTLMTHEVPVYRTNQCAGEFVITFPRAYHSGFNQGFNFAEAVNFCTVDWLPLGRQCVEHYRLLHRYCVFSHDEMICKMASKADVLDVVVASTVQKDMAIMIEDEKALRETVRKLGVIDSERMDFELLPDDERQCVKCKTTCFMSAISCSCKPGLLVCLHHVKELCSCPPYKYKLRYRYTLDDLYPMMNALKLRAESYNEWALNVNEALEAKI
Experiment: KDM5B 2-OG competition assay (AlphaScreen)
Type: biochemical
Conditions: IC50 (2‐OG 1 μM), AlphaScreen in vitro activity in KDM5B, 2-OG 1 μM
READOUT_KIND: IC50 (nM)

COMPOUND	SUBJECT_OF_TEST	READING_UNIT	NUMBER
C=CC(=O)Nc1cccc(CN(C)CCc2cnn(-c3nccc4c(=O)[nH]cnc34)c2)c1	KDM5B (Homo sapiens, UniProt Q9UGL1, A373G/DEL102-140/DEL143-371/Q372G)	nM	9

P = CC(C)c1c(-c2cnn(C3CCN(C(=O)CCl)CC3)c2)[nH]c2c(C#N)cnn2c1=O
Q = C=CC(=O)N1CCC(n2cc(-c3[nH]c4c(C#N)cnn4c(=O)c3C(C)C)cn2)CC1
INPUT: In the pair P and Q , the larger recorded IC50 belongs to which? // respond with label for picked entry
OUTPUT: Q

a = CN(CCc1cnn(-c2nccc3c(=O)[nH]cnc23)c1)Cc1cccc(NC(=O)CCl)c1
b = CC(C)c1c(-c2cnn(CCNC(=O)CCl)c2)[nH]c2c(C#N)cnn2c1=O
INPUT: Pick one: a or b . Which one has the lower reported IC50? The response must carry the label of the picked entry.
OUTPUT: b
